Each recorded value in this set is attributed to patent US6815205B2.

# System: transformed potato
# ASSAY INFO: Regeneration of Agrobacterium-mediated transformed potato tissue under kanamycin selection
# Assay type: cell-based
# CONDITION SET: in the presence of BAP; 100 mg/l kanamycin
VALUE KIND: regeneration of kanamycin resistant calli in transformed potato

Observe how each entry below is paired with its result.
| GIVEN SMILES | SYSTEM TESTED | OBSERVED |
| --- | --- | --- |
| CCc1cccc2c(CC(=O)O)c[nH]c12 | transformed potato | stimulated |
| O=C(O)Cc1c[nH]c2c(F)cccc12 | transformed potato | stimulated |
| O=C(O)Cc1c[nH]c2c(Br)cccc12 | transformed potato | stimulated |
| O=C(O)Cc1c[nH]c2ccc(F)cc12 | transformed potato | stimulated |
| COc1ccc2[nH]cc(CC(=O)O)c2c1 | transformed potato | stimulated |

## Input Which value of regeneration of kanamycin resistant calli in transformed potato has been reported for O=C(O)Cc1c[nH]c2ccc(Cl)cc12 in the records?
## Output stimulated

## Input Which value of regeneration of kanamycin resistant calli in transformed potato has been reported for CCc1ccc2[nH]cc(CC(=O)O)c2c1 in the records?
## Output stimulated

* * *

# Tested on: transformed tobacco
# ASSAY INFO: Regeneration of Agrobacterium-mediated transformed tobacco tissue under kanamycin selection
# Type: cell-based
# CONDITION SET: in the presence of BAP; 100 mg/l kanamycin
VALUE KIND: regeneration of kanamycin resistant calli and shoots in transformed tobacco

Observe how each entry below is paired with its result.
| COMPOUND | OBSERVED |
| --- | --- |
| CCc1cccc2c(CC(=O)O)c[nH]c12 [7-EtIAA, 7-ethylindole-3-acetic acid] | stimulated |
| O=C(O)Cc1c[nH]c2c(Br)cccc12 [7-BrIAA, 7-bromoindole-3-acetic acid] | stimulated |
| O=C(O)Cc1c[nH]c2ccc(Cl)cc12 [5-ClIAA, 5-chloroindole-3-acetic acid] | stimulated |
| O=C(O)Cc1c[nH]c2ccc(F)cc12 [5-FIAA, 5-fluoroindole-3-acetic acid] | stimulated |
| O=C(O)Cc1c[nH]c2c(F)cccc12 [7-FIAA, 7-fluoroindole-3-acetic acid] | stimulated |
| COc1ccc2[nH]cc(CC(=O)O)c2c1 [5-MeoIAA, 5-methoxyindole-3-acetic acid] | stimulated |

Lab note: next compound to report on.
## Input Which value of regeneration of kanamycin resistant calli and shoots in transformed tobacco has been reported for CCc1ccc2[nH]cc(CC(=O)O)c2c1 [5-EtIAA, 5-ethylindole-3-acetic acid] in the records?
## Output stimulated
